Target Or Test System: T1, rhNav1.7α + β1-β2-β3 (rhesus monkey)
T1 construct: also called rhNav1.7-beta1-beta2-beta3; rhNav1.7-β1-β2-β3
Method Description: binding FACS, CHO FlpIn
Measured Parameter: Bmax (%)

[[record]]
binder = "F010302337 (VHH) VHH: EVQLVESGGGVVQPGGSLRLSCAASHRQFIRDVFTGWYRRAPGKQRELVARIYEGGNTQYADSAKGRFTISRDNAKKTVYLQMNSLRPEDTALYYCLFSGTISTGREYRSGDYWGQGTLVTVSS"
measured_parameter = "Bmax"
value = 100

[[record]]
binder = "F010302340 (VHH) VHH: EVQLVESGGGVVQPGGSLRLSCAASHRAFIRDLFTGWYRRAPGKQRELVARIYESGNTNYADSAKGRFTISRDNAKKTVYLQMNSLRPEDTALYYCLFSGTISTGREYRSGDYWGQGTLVTVSS"
measured_parameter = "Bmax"
value = 96

[[record]]
binder = "F010302339 (VHH) VHH: EVQLVESGGGVVQPGGSLRLSCAASHRAFIRDVFTGWYRRAPGKQRELVARIYEGGNTQYADSAKGRFTISRDNAKKTVYLQMNSLRPEDTALYYCLFSGTISTGREYRSGDYWGQGTLVTVSS"
measured_parameter = "Bmax"
value = 100

